test system: herpes simplex virus Type 2 (HSV-2); test: plaque reduction assay, HSV-2 in vero cells; format: cell-based; settings: Human alphaherpesvirus 2, G strain, 48 hour incubation
Kindly state IC50 for each of the entries shown.
Answers are plain numbers, in µg/mL.

# example entries with known answers
Nc1nc2c(ncn2C[C@H](CO)OCP(=O)(O)O)c(=O)[nH]1 [(R)-HPMPG] ... 32
Nc1nc2c(ncn2CCOCP(=O)(O)O)c(=O)[nH]1 [PMEG, 9-[2-(phosphonomethoxy)ethyl]guanine] ... 0.31
Nc1nc2c(ncn2C[C@@H](CO)OCP(=O)(O)O)c(=O)[nH]1 [(S)-HPMPG] ... 31

Please give IC50, item by item, for the list that follows.
1. C[C@@H](Cn1cnc2c(=O)[nH]c(N)nc21)OCP(=O)(O)O [(S)-2'-methyl-PMEG]
2. C[C@H](Cn1cnc2c(=O)[nH]c(N)nc21)OCP(=O)(O)O [(R)-2'-methyl-PMEG]

Result:
[25, 25]

###

assay: in vitro; format: cell-based; conditions: human, mt-4 cells
Measure: MNTC at 168 h

Memo: C[C@H](Cn1cnc2c(=O)[nH]c(N)nc21)OCP(=O)(O)O [(R)-2'-methyl-PMEG] , reported MNTC at 168 h: < 100 µM

###

assay: in vitro; format: cell-based; settings: human, cem-ss cells
Measure: MNTC

C[C@@H](Cn1cnc2c(=O)[nH]c(N)nc21)OCP(=O)(O)O [(S)-2'-methyl-PMEG] ... < 100 µM

Next item in the queue.
Memo: C[C@H](Cn1cnc2c(=O)[nH]c(N)nc21)OCP(=O)(O)O [(R)-2'-methyl-PMEG] , reported MNTC: < 100 µM

###

assay: in vitro; type: cell-based; details: human, cem-ss cells
Measure: CC50 (µM)
Numbers only, in µM.

Nc1nc2c(ncn2C[C@@H](CO)OCP(=O)(O)O)c(=O)[nH]1 [(S)-HPMPG] ... 350

Next item in the queue.
Memo: C[C@@H](Cn1cnc2c(=O)[nH]c(N)nc21)OCP(=O)(O)O [(S)-2'-methyl-PMEG] , reported CC50: 300

###

assay: in vitro; assay type: cell-based; conditions: human, mt-4 cells
Measure: MCC at 168 h

Memo: Nc1nc2c(ncn2CCOCP(=O)(O)O)c(=O)[nH]1 [PMEG, 9-[2-(phosphonomethoxy)ethyl]guanine] , reported MCC at 168 h: > 100 nM

###

tested on: CEM-SS cells; test: in vitro; assay type: cell-based; conditions: human, cem-ss cells
Measure: CC50 (µM)
Numbers only, in µM.

Memo: Nc1nc2c(ncn2CCOCP(=O)(O)O)c(=O)[nH]1 [PMEG, 9-[2-(phosphonomethoxy)ethyl]guanine] , reported CC50: 15
